B1: PWWP2B (parent)
chain: TIRLRPRQVLCEKCKSTLSPPEAS

variants of: B1; assay: protein stability index of a GFP-peptide fusion (GPS, HEK-293T) (PSI 1-6); higher = more stable; settings: c terminus: a fixed tail appended;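 note: lentivirally expressed fusions sorted by FACS into six bins by GFP to DsRed ratio, PSI derived from sequencing read proportions per bin multiplied by bin number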
Measured protein stability index, listed per entry for reference.
Just the number, please.

Examples from the recorded data:
P20F; 2.26
L4M; 3.32
S16D; 2.78
P20S; 2.79
V9P; 3.13
K15A; 2.71

`K15T` has a reported protein stability index of 3.07

# protein stability index of `Q8R` = 2.95

Short answer for `R7I` : protein stability index was 2.9

Quick note, protein stability index for `P21Y` landed at 2.42

protein stability index reported for this variant `S24N` : 2.98

So for `I2C` , the logged protein stability index turned out to be 3.7

Sure, the documented protein stability index for `C14K` is 4.05

Note to self: protein stability index recorded for `T17S` was 2.96

Item: `R3H` | protein stability index: 3.09

protein stability index reading for `P6L` : 2.04

The recorded protein stability index for `Q8A` is 2.85

GET /value?item= `S24T` &field=protein stability index returns 3.25
